system: Gli-responsive luciferase reporter cells, SUFU pathway antagonism; assay: Gli-SUFU pathway antagonists, dose response, cell-based, luciferase luminescence, uHTS hits (AID 602464)
QUANTITY_MEASURED: IC50

Value of measured IC50 for the entry COCCNc1nc2c(c(=O)n(C)c(=O)n2C)n1Cc1cccc(C(F)(F)F)c1 : 3.55 µM

Value of measured IC50 for the entry CC(C)n1c(-c2ccco2)csc1=Nc1cccnc1 : 8.01 µM

Value of measured IC50 for the entry Cc1ccc(C)c(N2CC(O)(c3cccs3)[N+]3=C2CCCC3)c1 (stereo unspecified) : 10.4 µM

Value of measured IC50 for the entry CCOc1ccc(-n2c(O)c(/C=N/Nc3nc(C)cc(C)n3)c3ccccc3c2=O)cc1 : 7.13 µM

Value of measured IC50 for the entry CCOC(=O)C1CCCN(S(=O)(=O)c2ccc(S(=O)(=O)N(CC)CC)cc2)C1 (stereo unspecified) : 3.29 µM

Value of measured IC50 for the entry C[N+]1(CC(=O)OC2CCCCCCCCCCC2)CCCC1 : 19.3 µM

Value of measured IC50 for the entry Cc1ccc2c(c1)c(C)cc[n+]2Cc1ccccc1 : 8.76 µM

Value of measured IC50 for the entry COc1ccc(CN(C)Cc2nc(Cc3cccc(F)c3)no2)c2cccnc12 : 5.96 µM

Value of measured IC50 for the entry CCCCN(C(C)=O)c1ccc2c(c1)C1CC2CCN1C(=O)OCc1ccccc1 (stereo unspecified) : 6.13 µM

Value of measured IC50 for the entry COc1ccc(NS(=O)(=O)c2ccc(NC(C)=O)cc2)cc1OC : 7.92 µM

Value of measured IC50 for the entry Clc1ccc(-c2c[n+](Cc3ccc(Cl)cc3Cl)c3n2CCCCC3)cc1 : 5.31 µM

Cited source for all entries: PubChem BioAssay AID602464
